Biological target: MycN (Homo sapiens)
Construct: endogenous in cells; host or cells: SK-N-BE(2)
Assay: Degradation of MycN protein in SK-N-BE(2) cells (JESS/Western blot)
Type: cell-based
Conditions: SKNBE2 cells, 24 h, 3 μM; read-out: % Degradation of MycN (SKNBE2) 24 h, 3 μM
ENDPOINT: Dmax at 3 µM

Query :: # input compound: CN(CC12CNC(C1)C2)c1nccc(Nc2cc(C3CC3)[nH]n2)n1 [Compound 2] ; wanted: its Dmax at 3 µM
Result :: 20 to 49%

Query :: # input compound: Cn1cc(C(=O)N2CCC(Nc3nccc(Nc4cc(C5CC5)[nH]n4)n3)CC2)nn1 [Compound 37] ; wanted: its Dmax at 3 µM
Result :: 20 to 49%

Query :: # input compound: CN1CC2(CC(Nc3nccc(Nc4cc(C5CC5)[nH]n4)n3)C2)C1 [Compound 36] ; wanted: its Dmax at 3 µM
Result :: 20 to 49%

Query :: # input compound: c1cc(Nc2cc(C3CC3)[nH]n2)nc(NC2CCC3(CC2)CNC3)n1 [Compound 33] ; wanted: its Dmax at 3 µM
Result :: 80 to 100%

Query :: # input compound: c1cc(Nc2cc(C3CCCC3)[nH]n2)nc(NC2CCC3(CC2)CNC3)n1 [Compound 40] ; wanted: its Dmax at 3 µM
Result :: 80 to 100%

Query :: # input compound: F[C@@H]1CNCC[C@@H]1Nc1nccc(Nc2cc(C3CC3)[nH]n2)n1 [Compound 44] ; wanted: its Dmax at 3 µM
Result :: 20 to 49%

Query :: # input compound: CN1CC[C@@H](Nc2nccc(Nc3cc(C4CC4)[nH]n3)n2)[C@@H](F)C1 [Compound 42] ; wanted: its Dmax at 3 µM
Result :: 20 to 49%

Query :: # input compound: c1cc(Nc2cc(C3CCCC3)[nH]n2)nc(NC2CCNCC2)n1 [Compound 32] ; wanted: its Dmax at 3 µM
Result :: 80 to 100%

Query :: # input compound: CN1CC2(CC(Nc3nccc(Nc4cc(C5CCCC5)[nH]n4)n3)C2)C1 [Compound 38] ; wanted: its Dmax at 3 µM
Result :: 80 to 100%

Query :: # input compound: CN1CC2(CNc3nccc(Nc4cc(C5CC5)[nH]n4)n3)CC1C2 [Compound 4] ; wanted: its Dmax at 3 µM
Result :: < 20%

====

Target: MycN (Homo sapiens)
Construct: endogenous in cells; host or cells: SK-N-BE(2)
Test: Degradation of MycN protein in SK-N-BE(2) cells (JESS/Western blot)
Format: cell-based
Settings: SKNBE2 cells, 24 h, 1 μM; read-out: % Degradation of MycN (SKNBE2) 24 h, 1 μM
ENDPOINT: Dmax at 1 µM

Query :: # input compound: F[C@@H]1CNCC[C@@H]1Nc1nccc(Nc2cc(C3CC3)[nH]n2)n1 [Compound 44] ; wanted: its Dmax at 1 µM
Result :: 20 to 49%

Query :: # input compound: CN1CC2(CCC(Nc3nccc(Nc4cc(C5CC5)[nH]n4)n3)CC2)C1 [Compound 34] ; wanted: its Dmax at 1 µM
Result :: 80 to 100%

Query :: # input compound: c1cc(Nc2cc(C3CC3)[nH]n2)nc(NC2CCC3(CC2)CNC3)n1 [Compound 33] ; wanted: its Dmax at 1 µM
Result :: 20 to 49%

Query :: # input compound: c1cc(Nc2cc(C3CC3)[nH]n2)nc(NC2CCOCC2)n1 [Compound 65] ; wanted: its Dmax at 1 µM
Result :: 50 to 79%

Query :: # input compound: c1cc(Nc2cc(C3CCCC3)[nH]n2)nc(NC2CCC3(CC2)CNC3)n1 [Compound 40] ; wanted: its Dmax at 1 µM
Result :: 80 to 100%

Query :: # input compound: Cn1cc(C(=O)N2CCC(Nc3nccc(Nc4cc(C5CC5)[nH]n4)n3)CC2)nn1 [Compound 37] ; wanted: its Dmax at 1 µM
Result :: < 20%

Query :: # input compound: c1cc(Nc2cc(C3CCCC3)[nH]n2)nc(NC2CC3(CNC3)C2)n1 [Compound 30] ; wanted: its Dmax at 1 µM
Result :: < 20%

Query :: # input compound: CN1CC2(CC(Nc3nccc(Nc4cc(C5CC5)[nH]n4)n3)C2)C1 [Compound 36] ; wanted: its Dmax at 1 µM
Result :: < 20%

Query :: # input compound: CN(CC12CNC(C1)C2)c1nccc(Nc2cc(C3CC3)[nH]n2)n1 [Compound 2] ; wanted: its Dmax at 1 µM
Result :: < 20%

====

Target: MycC (Homo sapiens)
Construct: endogenous in cells; host or cells: L363
Sequence (P01106 whole entry): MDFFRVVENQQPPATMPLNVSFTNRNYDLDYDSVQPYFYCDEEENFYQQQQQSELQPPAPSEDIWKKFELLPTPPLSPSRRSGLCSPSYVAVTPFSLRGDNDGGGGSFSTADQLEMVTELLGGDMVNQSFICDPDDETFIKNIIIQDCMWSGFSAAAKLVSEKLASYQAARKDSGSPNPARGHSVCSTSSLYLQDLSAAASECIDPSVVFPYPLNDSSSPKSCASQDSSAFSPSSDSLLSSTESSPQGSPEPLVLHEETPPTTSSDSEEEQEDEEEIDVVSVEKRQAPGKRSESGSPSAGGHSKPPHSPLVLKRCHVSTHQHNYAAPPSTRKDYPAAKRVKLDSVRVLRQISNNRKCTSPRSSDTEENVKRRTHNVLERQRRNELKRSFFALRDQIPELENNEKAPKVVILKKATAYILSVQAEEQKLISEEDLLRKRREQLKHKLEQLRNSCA
Assay: Degradation of MycC protein in L363 cells (JESS/Western blot)
Assay type: cell-based
Conditions: L-363 cells, 24 h, 1 μM; read-out: % Degradation of MycC (L-363) 24 h, 1 μM
Exercise: state measured Dmax at 1 µM for each of the compounds provided.

Query :: API: value(readout=Dmax at 1 µM, system=MycC (Homo sapiens)) for record CN1CC2(CC(Nc3nccc(Nc4cc(C5CCCC5)[nH]n4)n3)C2)C1 [Compound 38]
Result :: 50 to 79%

Query :: API: value(readout=Dmax at 1 µM, system=MycC (Homo sapiens)) for record CN1CC2(CCC(N(C)c3nccc(Nc4cc(C5CC5)[nH]n4)n3)CC2)C1 [Compound 49]
Result :: 80 to 100%

Query :: API: value(readout=Dmax at 1 µM, system=MycC (Homo sapiens)) for record c1cc(Nc2cc(C3CCCC3)[nH]n2)nc(NC2CCC3(CC2)CNC3)n1 [Compound 40]
Result :: < 20%

Query :: API: value(readout=Dmax at 1 µM, system=MycC (Homo sapiens)) for record c1cc(Nc2cc(C3CC3)[nH]n2)nc(NC2CCOCC2)n1 [Compound 65]
Result :: 80 to 100%

Query :: API: value(readout=Dmax at 1 µM, system=MycC (Homo sapiens)) for record c1cc(Nc2cc(C3CC3)[nH]n2)nc(NC2CCC3(CC2)CNC3)n1 [Compound 33]
Result :: < 20%

Query :: API: value(readout=Dmax at 1 µM, system=MycC (Homo sapiens)) for record Cn1cc(C(=O)N2CC3(CC(Nc4nccc(Nc5cc(C6CCCC6)[nH]n5)n4)C3)C2)nn1 [Compound 39]
Result :: 20 to 49%

Query :: API: value(readout=Dmax at 1 µM, system=MycC (Homo sapiens)) for record F[C@@H]1CNCC[C@@H]1Nc1nccc(Nc2cc(C3CC3)[nH]n2)n1 [Compound 44]
Result :: 20 to 49%

Query :: API: value(readout=Dmax at 1 µM, system=MycC (Homo sapiens)) for record c1cc(Nc2cc(C3CCCC3)[nH]n2)nc(NC2CC3(CNC3)C2)n1 [Compound 30]
Result :: 80 to 100%

Query :: API: value(readout=Dmax at 1 µM, system=MycC (Homo sapiens)) for record c1cc(Nc2cc(C3CC3)[nH]n2)nc(NC2CCNCC2)n1 [Compound 29]
Result :: 80 to 100%

Query :: API: value(readout=Dmax at 1 µM, system=MycC (Homo sapiens)) for record CN1CC2(CC(Nc3nccc(Nc4cc(C5CC5)[nH]n4)n3)C2)C1 [Compound 36]
Result :: 50 to 79%

Query :: API: value(readout=Dmax at 1 µM, system=MycC (Homo sapiens)) for record c1cc(Nc2cc(C3CC3)[nH]n2)nc(NC2CC3(CNC3)C2)n1 [Compound 28]
Result :: < 20%

Query :: API: value(readout=Dmax at 1 µM, system=MycC (Homo sapiens)) for record CN1CC2(CCC(Nc3nccc(Nc4cc(C5CCCC5)[nH]n4)n3)CC2)C1 [Compound 20]
Result :: 80 to 100%

Query :: API: value(readout=Dmax at 1 µM, system=MycC (Homo sapiens)) for record CN1CC2(CNc3nccc(Nc4cc(C5CC5)[nH]n4)n3)CC1C2 [Compound 4]
Result :: < 20%

Query :: API: value(readout=Dmax at 1 µM, system=MycC (Homo sapiens)) for record CN1CC2(CCC(Nc3nccc(Nc4cc(C5CC5)[nH]n4)n3)CC2)C1 [Compound 34]
Result :: 50 to 79%

Query :: API: value(readout=Dmax at 1 µM, system=MycC (Homo sapiens)) for record c1cc(Nc2cc(C3CCCC3)[nH]n2)nc(NC2CCNCC2)n1 [Compound 32]
Result :: 50 to 79%

====

Target: MycN (Homo sapiens, UniProt P04198)
Construct: endogenous in cells; host or cells: SK-N-BE(2)
Sequence (P04198 1-464): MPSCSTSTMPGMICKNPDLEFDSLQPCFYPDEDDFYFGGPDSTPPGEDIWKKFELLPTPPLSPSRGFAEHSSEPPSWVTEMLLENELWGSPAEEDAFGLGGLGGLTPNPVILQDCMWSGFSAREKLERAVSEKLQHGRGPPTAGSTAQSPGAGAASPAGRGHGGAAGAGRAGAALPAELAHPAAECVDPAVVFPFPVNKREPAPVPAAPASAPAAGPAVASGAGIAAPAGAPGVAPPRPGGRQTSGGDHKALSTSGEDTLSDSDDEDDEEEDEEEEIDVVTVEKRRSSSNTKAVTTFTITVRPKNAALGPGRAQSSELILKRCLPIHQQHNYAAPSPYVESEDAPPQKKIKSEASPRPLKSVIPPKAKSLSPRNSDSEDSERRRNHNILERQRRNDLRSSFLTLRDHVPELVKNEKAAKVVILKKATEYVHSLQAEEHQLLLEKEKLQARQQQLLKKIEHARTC
Test: Degradation of MycN protein in SK-N-BE(2) cells (JESS/Western blot)
Assay type: cell-based
Conditions: SKNBE2 cells, 24 h, 6 μM; read-out: % Degradation of MycN (SKNBE2) 24 h, 6 μM
ENDPOINT: Dmax at 6 µM

Query :: # input compound: "CN1CC2(CNc3nccc(Nc4cc(C5CC5)[nH]n4)n3)CC1C2" ; wanted: its Dmax at 6 µM
Result :: 20 to 49%

Query :: # input compound: "CN1CC2(CCC(N(C)c3nccc(Nc4cc(C5CC5)[nH]n4)n3)CC2)C1" ; wanted: its Dmax at 6 µM
Result :: 80 to 100%

Query :: # input compound: "c1cc(Nc2cc(C3CCCC3)[nH]n2)nc(NC2CCNCC2)n1" ; wanted: its Dmax at 6 µM
Result :: 80 to 100%

Query :: # input compound: "c1cc(Nc2cc(C3CCCC3)[nH]n2)nc(NC2CCC3(CC2)CNC3)n1" ; wanted: its Dmax at 6 µM
Result :: 80 to 100%

Query :: # input compound: "CN1CC2(CCC(Nc3nccc(Nc4cc(C5CCCC5)[nH]n4)n3)CC2)C1" ; wanted: its Dmax at 6 µM
Result :: 80 to 100%

Query :: # input compound: "CN1CCC(C(=O)Nc2nccc(Nc3cc(C4CC4)[nH]n3)n2)CC1" ; wanted: its Dmax at 6 µM
Result :: 20 to 49%

Query :: # input compound: "CN1CC2(CC(Nc3nccc(Nc4cc(C5CCCC5)[nH]n4)n3)C2)C1" ; wanted: its Dmax at 6 µM
Result :: 80 to 100%

Query :: # input compound: "CN(CC12CNC(C1)C2)c1nccc(Nc2cc(C3CC3)[nH]n2)n1" ; wanted: its Dmax at 6 µM
Result :: 50 to 79%

Query :: # input compound: "c1cc(Nc2cc(C3CCCC3)[nH]n2)nc(NC2CC3(CNC3)C2)n1" ; wanted: its Dmax at 6 µM
Result :: 50 to 79%

Query :: # input compound: "Cn1cc(C(=O)N2CC3(CC(Nc4nccc(Nc5cc(C6CCCC6)[nH]n5)n4)C3)C2)nn1" ; wanted: its Dmax at 6 µM
Result :: 80 to 100%

Query :: # input compound: "CN1CC2(CC(Nc3nccc(Nc4cc(C5CC5)[nH]n4)n3)C2)C1" ; wanted: its Dmax at 6 µM
Result :: 80 to 100%

The values you see were collected from patent US20250177393A1.
